Each item that follows carries a reported growth.
Test system: UO-31 renal
method.summary: NCI-60 one-dose screen, 48 h (100 = growth as untreated, 0 = no growth, -100 = all killed)
test.conditions: 10 µM unless noted
About 83,000 compounds went through this panel and 20% of them were active in at least one assay; those are over-represented in the sample as a whole.
Dear colleague, please return just the value in %, with no unit written.

{"compound": "COc1cccc(NC(=O)Cn2cc(CN3CCN(c4ccnc5cc(Cl)ccc45)CC3)nn2)c1", "growth (%)": 62}

Inquiry: Looking for the measured growth of `O=Cc1ccc([N+](=O)[O-])s1` , can you help?
Reply text: 89.8

Inquiry: Request: `CCS/C(Nc1ccccc1)=C(\C#N)C(=O)N/N=C/c1ccc(Cl)cc1Cl`
Reply text: 41.9

Inquiry: Request: `OCCOCCN(Cc1ccccn1)Cc1cc(I)cc(I)c1O`
Reply text: 42.9

Inquiry: Request: `C[C@]12CC[C@@H]3c4ccc(O)c([N+](=O)[O-])c4CC[C@H]3[C@@H]1CCC2=O`
Reply text: 81.5

Inquiry: Request: `C#CCOc1cccc(Nc2ncnc3c(NC(=O)C=C)cccc23)c1`
Reply text: 25.8
